fold change of affinity overview
Tested target: T1, Human CD137 ECD (human)
T1 construct: also called 4-1BB
T1 sequence (chain, as listed by the source limits assumed): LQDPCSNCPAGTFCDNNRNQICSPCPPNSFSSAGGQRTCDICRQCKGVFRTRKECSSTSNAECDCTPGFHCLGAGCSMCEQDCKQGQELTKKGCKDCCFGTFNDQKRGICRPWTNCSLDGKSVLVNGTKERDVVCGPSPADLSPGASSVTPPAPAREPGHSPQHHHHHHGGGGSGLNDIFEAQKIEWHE
Experiment summary: single mutant vs template dBBDu183H
Unit fold implied. Number only.

Known results for binders:
>>> numeric_result("H183/L072 VH A56H (antibody, name in Kabat numbering, V domains shown) VH: QVQLVESGGGLVQPGRSLRLSCAASGFTFSNAWMHWVRQAPGKGLEWVAQIKDKGNAYHAYYAPSVKGRFTISRDDSKNSIYLQMNSLKTEDTAVYYCHYVHYASASTVLPAFGVDAWGQGTTVTVSS VL: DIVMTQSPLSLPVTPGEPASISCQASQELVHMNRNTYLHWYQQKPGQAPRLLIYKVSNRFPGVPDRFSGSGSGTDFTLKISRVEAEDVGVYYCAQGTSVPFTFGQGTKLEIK")
0.6
>>> numeric_result("H183/L072 VH Y58M (antibody, name in Kabat numbering, V domains shown) VH: QVQLVESGGGLVQPGRSLRLSCAASGFTFSNAWMHWVRQAPGKGLEWVAQIKDKGNAYAAMYAPSVKGRFTISRDDSKNSIYLQMNSLKTEDTAVYYCHYVHYASASTVLPAFGVDAWGQGTTVTVSS VL: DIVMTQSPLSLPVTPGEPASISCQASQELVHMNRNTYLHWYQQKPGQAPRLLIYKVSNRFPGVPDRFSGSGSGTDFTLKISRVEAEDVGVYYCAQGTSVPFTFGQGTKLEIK")
0.6
>>> numeric_result("H183/L072 VH F27R (antibody, name in Kabat numbering, V domains shown) VH: QVQLVESGGGLVQPGRSLRLSCAASGRTFSNAWMHWVRQAPGKGLEWVAQIKDKGNAYAAYYAPSVKGRFTISRDDSKNSIYLQMNSLKTEDTAVYYCHYVHYASASTVLPAFGVDAWGQGTTVTVSS VL: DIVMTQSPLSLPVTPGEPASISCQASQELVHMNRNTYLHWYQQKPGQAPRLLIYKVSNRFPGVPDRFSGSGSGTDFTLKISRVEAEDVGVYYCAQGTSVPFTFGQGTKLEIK")
0.2
>>> numeric_result("H183/L072 VH A100fM (antibody, name in Kabat numbering, V domains shown) VH: QVQLVESGGGLVQPGRSLRLSCAASGFTFSNAWMHWVRQAPGKGLEWVAQIKDKGNAYAAYYAPSVKGRFTISRDDSKNSIYLQMNSLKTEDTAVYYCHYVHYASASTVLPMFGVDAWGQGTTVTVSS VL: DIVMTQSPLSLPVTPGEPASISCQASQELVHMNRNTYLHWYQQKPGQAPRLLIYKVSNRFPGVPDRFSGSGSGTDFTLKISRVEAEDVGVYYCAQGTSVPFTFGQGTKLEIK")
0

## Input What value of measured fold change of affinity is listed for H183/L072 VH S30A (antibody, name in Kabat numbering, V domains shown) VH: QVQLVESGGGLVQPGRSLRLSCAASGFTFANAWMHWVRQAPGKGLEWVAQIKDKGNAYAAYYAPSVKGRFTISRDDSKNSIYLQMNSLKTEDTAVYYCHYVHYASASTVLPAFGVDAWGQGTTVTVSS VL: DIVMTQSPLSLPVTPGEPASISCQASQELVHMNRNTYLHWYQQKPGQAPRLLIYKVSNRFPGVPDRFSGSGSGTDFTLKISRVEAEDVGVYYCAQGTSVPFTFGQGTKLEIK ?
## Output 1.2
